Tested on: Fibroblast
TEST_DETAILS: Multiplex assay against human fibroblast
Type: toxicity, cell-based
CONDITIONS_USED: 48 h, 1 µM, compound concentration 1 uM, replicate 2
Checkbox rule: Population Healthy Nuclei (%) lower than 50% = Criterion met; Population Healthy Nuclei (%) not lower than 50% = Criterion not met.

Data request: Please check: Population Healthy Nuclei (%) for CC(C)C[C@H](CO)Nc1nc(S[C@@H](C)c2ccccc2)nc2nc(N)sc12 , strictly under 50% or not?
Data returned: Criterion met

Data request: Please check: Population Healthy Nuclei (%) for COc1cc(OC2CCN(C(C)=O)CC2)ccc1C(=O)N1CCC(N2C(=O)OCc3ccccc32)CC1 , strictly under 50% or not?
Data returned: Criterion not met

Data request: Please check: Population Healthy Nuclei (%) for CN1CCN(c2ccc(Nc3c4ccccc4nc4ccccc34)cc2)CC1.Cl.Cl.O , strictly under 50% or not?
Data returned: Criterion not met
